Reported values of IC50 for individual entries
Target: SARS-COV-2 3CLpro/Mpro protease (Severe acute respiratory syndrome coronavirus 2 (2019-nCoV) (SARS-CoV-2))
Assay: Inhibitory effect on SARS-COV-2 3CLpro/Mpro protease by fluorescence resonance energy transfer
Type: biochemical
Conditions: activity intervals A-D, read-out: IC50 (nM), Inhibition on SARS-CoV-2 3CLpro/Mpro protease

| Molecule | IC50 |
| --- | --- |
| CNc1cncc(C(=O)N2CCC[C@@H](Nc3c(C(=O)N4C[C@@H](C)C[C@H](C)C4)cc(Br)cc3[N+](=O)[O-])C2)c1 [Example 257] | 10 to 50 nM |
| C[C@@H]1CN(C(=O)c2cc(Br)cc([N+](=O)[O-])c2N[C@@H]2CCCN(C(=O)[C@H]3CC(=O)Nc4ccccc43)C2)CCO1 [Example 282] | 10 to 50 nM |
| CSc1cncc(C(=O)N2CCC[C@@H](Nc3c(C(=O)N4CCCCC4)cc(Br)cc3[N+](=O)[O-])C2)c1 [Example 261] | 10 to 50 nM |
| CNc1cncc(C(=O)N2CCC[C@@H](Nc3c(C(=O)N4C[C@@H](C)O[C@@H](C(F)(F)F)C4)cc(Br)cc3[N+](=O)[O-])C2)c1 [Example 349] | 10 to 50 nM |
| O=C1CC(C(=O)N2CCC[C@@H](Nc3c(C(=O)N4CCCCC4)cc(Br)cc3[N+](=O)[O-])C2)c2ccccc2N1 (stereo partly drawn) [Example 204] | 10 to 50 nM |
| CNc1cncc(C(=O)N2C[C@H](Nc3c(C(=O)N4CCC(C)(C)CC4)cc(Br)cc3[N+](=O)[O-])C3(CC3)C2)c1 [Example 87] | 10 to 50 nM |
| Cc1cc(C(=O)N2C[C@H](Nc3c(C(=O)N4C[C@H](C)C[C@H](C)C4)cc(Br)cc3[N+](=O)[O-])C3(CC3)C2)cc(=O)[nH]1 [Example 92] | 10 to 50 nM |
| CNc1cncc(C(=O)N2CCC[C@@H](Nc3c(C(=O)N4CC5COCC5C4)cc(Br)cc3[N+](=O)[O-])C2)c1 (stereo partly drawn) [Example 232] | 10 to 50 nM |
| CNc1cncc(C(=O)N2C[C@H](Nc3c(C(=O)N4C[C@@H](C)O[C@@H](C)C4)cc(Br)cc3[N+](=O)[O-])C[C@H]2C(=O)N[C@H]2CC(=O)N(C)C2)c1 [Example 437] | 50 to 100 nM |
| CNc1cncc(C(=O)N2C[C@H](Nc3c(C(=O)N4C[C@@H](C)O[C@@H](C)C4)cc(Br)cc3[N+](=O)[O-])C[C@H]2C(=O)N[C@H]2CCN(CCOC)C2)c1 [Example 404] | 100 to 200 nM |
| CNc1cncc(C(=O)N2C[C@H](Nc3c(-c4nnn(C)n4)cc(Br)cc3[N+](=O)[O-])[C@@H](OC)C2)c1 [Example 440] | 50 to 100 nM |
| Cc1cc(C(=O)N2CC(Nc3c(C(=O)N4CCC5(CCC5)CC4)cc(Br)cc3[N+](=O)[O-])C(F)(F)C2)cc(=O)[nH]1 (stereo not drawn) [Example 154] | 50 to 100 nM |
| C[C@H]1CN(C(=O)c2cc(Br)cc([N+](=O)[O-])c2N[C@@H]2CCCN(C(=O)[C@H]3CC(=O)Nc4ccccc43)C2)CCO1 [Example 283] | 10 to 50 nM |
| O=C(c1cncc(Br)c1)N1CC[C@@H](Nc2c(C(=O)N3CCCCC3)cc(Br)cc2C(F)(F)F)C1 [Example 68] | 50 to 100 nM |
| C[C@@H]1CN(C(=O)c2cc(Br)cc([N+](=O)[O-])c2N[C@@H]2CCOC[C@@H]2NC(=O)c2cncc3ccccc23)C[C@H](C)O1 [Example 152] | 10 to 50 nM |
| CNc1cncc(C(=O)N2C[C@H](Nc3c(C(=O)N4C[C@@H](C)O[C@@H](C)C4)cc(Br)cc3[N+](=O)[O-])C[C@H]2C(=O)NC2CNC(=O)C2)c1 (stereo partly drawn) [Example 393] | 50 to 100 nM |
| CNc1cncc(C(=O)N2CCC[C@@H](Nc3c(C(=O)N4CCCCC4)cc(Br)cc3[N+](=O)[O-])C2)c1 [Example 31] | 10 to 50 nM |
| Cc1cc(C(=O)N2CC(Nc3c(C(=O)N4CCC5(CCCC5)CC4)cc(Br)cc3[N+](=O)[O-])C(F)(F)C2)cc(=O)[nH]1 (stereo not drawn) [Example 156] | 10 to 50 nM |
| O=C(c1cc(Br)cc([N+](=O)[O-])c1N[C@@H]1CCN(C(=O)c2cncc3ccccc23)C1)N1CCCC1 [Example 40] | 10 to 50 nM |
| CNc1cncc(C(=O)N2CCC[C@@H](Nc3c(C(=O)N4Cc5cnn(C)c5C4)cc(Br)cc3[N+](=O)[O-])C2)c1 [Example 304] | 50 to 100 nM |
| CNc1cncc(C(=O)N2C[C@H](Nc3c(C(=O)N4C[C@@H](C)O[C@@H](C)C4)cc(Br)cc3[N+](=O)[O-])C(C)(C)C2)c1 [Example 162] | 10 to 50 nM |
| CNc1cncc(C(=O)N2C[C@H](Nc3c(C(=O)N4C[C@@H](C)O[C@@H](C)C4)cc(Br)cc3[N+](=O)[O-])C[C@H]2C(=O)Nc2cc3cn(C)nc3cc2Cl)c1 [Example 399] | 50 to 100 nM |
| CNc1cncc(C(=O)N2C[C@H](Nc3c(C(=O)N4C[C@@H](C)O[C@@H](C)C4)cc(Br)cc3[N+](=O)[O-])C[C@H]2C(=O)Nc2nn(-c3cccnc3)cc2Br)c1 [Example 424] | 50 to 100 nM |
| CNc1cncc(C(=O)N2C[C@H](Nc3c(C(=O)N4C[C@@H](C)O[C@@H](C)C4)cc(Br)cc3[N+](=O)[O-])C3(CC3)C2)c1 [Example 20] | 10 to 50 nM |
